- testDetails: Dissociation constant, pKa of the compound
- Type: physicochemical
measure: pKa

{"compound": "CC1CCN(C(=O)c2ccc3cc(OCCCN4CCCCC4)ccc3n2)CC1", "pKa": 9.7}
{"compound": "CC(C)N1CCC(Oc2ccc3nc(C(=O)N4CCC[C@H]4C#N)ccc3c2)CC1", "pKa": 9.5}
{"compound": "CC1CCN(C(=O)c2ccc3cc(OCCC4CCCN4C)ccc3c2)CC1 (centres undefined)", "pKa": 9.9}
{"compound": "CC1CCN(C(=O)c2ccc3cc(OCCCN4CCCCC4)ccc3c2)CC1", "pKa": 9.86}
{"compound": "CC(C)N1CCC(Oc2ccc3nc(C(=O)N4CCOCC4)ccc3c2)CC1", "pKa": 9.5}
{"compound": "O=C(c1ccc2cc(OCCCN3CCCCC3)ccc2c1)N1CCC(CO)CC1", "pKa": 9.6}
{"compound": "CC(C)N1CCC(Oc2ccc3cc(C(=O)N4CCOCC4)ccc3c2)CC1", "pKa": 9.3}
{"compound": "O=C(c1ccc2cc(OCCCN3CCCCC3)ccc2n1)N1CCC1", "pKa": 9.4}
{"compound": "CC(C)N1CCC(Oc2ccc3nc(C(=O)N4CCC4)ccc3c2)CC1", "pKa": 9.5}

----------
- experimentalTarget: Cytochrome P450 2C19 (Homo sapiens)
- Sequence (P33261 whole entry): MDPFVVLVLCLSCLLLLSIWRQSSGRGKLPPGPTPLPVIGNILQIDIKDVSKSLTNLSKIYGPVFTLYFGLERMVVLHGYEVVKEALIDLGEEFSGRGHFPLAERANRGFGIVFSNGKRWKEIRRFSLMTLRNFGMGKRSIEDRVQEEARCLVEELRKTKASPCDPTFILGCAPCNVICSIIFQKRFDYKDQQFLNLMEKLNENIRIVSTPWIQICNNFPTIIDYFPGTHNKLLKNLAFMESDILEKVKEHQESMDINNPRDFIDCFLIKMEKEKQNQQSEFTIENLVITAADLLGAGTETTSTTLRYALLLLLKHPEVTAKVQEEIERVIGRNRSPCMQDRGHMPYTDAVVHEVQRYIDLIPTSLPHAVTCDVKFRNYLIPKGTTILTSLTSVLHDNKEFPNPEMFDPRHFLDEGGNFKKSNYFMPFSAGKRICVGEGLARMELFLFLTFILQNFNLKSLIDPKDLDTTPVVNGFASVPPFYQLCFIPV
- testDetails: Inhibition of CYP2C19
- Assay type: ADME
pIC50: −log10 of the molar value.
measure: pIC50

**Q:** Look up and state reported pIC50 for CC1CCN(C(=O)c2ccc3cc(OCCCN4CCCCC4)ccc3c2)CC1
**A:** < 4.92

----------
- experimentalTarget: Cytochrome P450 3A4 (Homo sapiens, UniProt P08684)
- Sequence (P08684 whole entry): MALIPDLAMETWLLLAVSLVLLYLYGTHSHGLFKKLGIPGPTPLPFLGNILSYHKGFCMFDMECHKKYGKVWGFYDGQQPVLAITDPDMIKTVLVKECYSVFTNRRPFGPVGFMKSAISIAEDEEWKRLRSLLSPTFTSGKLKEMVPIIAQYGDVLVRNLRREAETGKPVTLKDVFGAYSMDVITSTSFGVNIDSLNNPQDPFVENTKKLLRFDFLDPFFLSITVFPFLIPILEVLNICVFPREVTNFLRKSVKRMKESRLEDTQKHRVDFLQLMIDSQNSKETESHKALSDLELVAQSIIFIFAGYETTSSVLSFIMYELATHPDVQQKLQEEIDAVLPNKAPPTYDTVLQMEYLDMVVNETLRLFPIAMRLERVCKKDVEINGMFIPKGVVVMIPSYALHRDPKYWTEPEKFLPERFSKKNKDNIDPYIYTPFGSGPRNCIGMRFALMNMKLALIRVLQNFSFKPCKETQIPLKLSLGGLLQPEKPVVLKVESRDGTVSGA
measure: IC50

**Q:** Identify measured IC50 obtained with Cytochrome P450 3A4 (Homo sapiens, UniProt P08684) for CC1CCN(C(=O)c2ccc3cc(OCCCN4CCCCC4)ccc3c2)CC1 .
**A:** > 12 µM

----------
- testDetails: Metabolic stability in rat liver microsomes assessed as clearance per mg of protein
- Format: ADME, Microsome
measure: microsomal CLint (µL/min/mg)

A. CC(C)N1CCC(Oc2ccc3cc(C(=O)N4CCOCC4)ccc3c2)CC1
B. CC1CCN(C(=O)c2ccc3cc(OCCCN4CCCCC4)ccc3c2)CC1
**Q:** Response body: label of entry with the larger microsomal CLint; valid values A , B . Mark your answer with the label of the selected entry.
**A:** B
(B: 32 µL/min/mg, A: 3 µL/min/mg)

----------
- experimentalTarget: Cytochrome P450 2C9 (Homo sapiens, UniProt P11712)
- Sequence (P11712 whole entry): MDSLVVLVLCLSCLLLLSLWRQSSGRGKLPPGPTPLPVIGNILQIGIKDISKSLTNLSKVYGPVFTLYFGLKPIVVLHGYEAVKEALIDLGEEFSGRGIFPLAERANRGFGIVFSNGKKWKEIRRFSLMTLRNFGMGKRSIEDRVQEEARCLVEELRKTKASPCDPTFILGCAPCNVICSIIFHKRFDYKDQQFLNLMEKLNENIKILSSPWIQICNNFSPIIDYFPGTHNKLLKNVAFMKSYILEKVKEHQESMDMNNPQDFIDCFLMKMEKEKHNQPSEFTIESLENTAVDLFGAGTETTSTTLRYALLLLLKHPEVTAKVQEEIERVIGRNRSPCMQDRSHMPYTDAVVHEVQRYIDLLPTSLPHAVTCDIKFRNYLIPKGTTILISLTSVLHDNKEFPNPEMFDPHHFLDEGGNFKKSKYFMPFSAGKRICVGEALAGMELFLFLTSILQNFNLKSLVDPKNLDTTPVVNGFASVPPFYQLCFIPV
measure: IC50

**Q:** Would you please give the reported IC50 of CC1CCN(C(=O)c2ccc3cc(OCCCN4CCCCC4)ccc3c2)CC1 with Cytochrome P450 2C9 (Homo sapiens, UniProt P11712)?
**A:** > 12 µM

----------
- testDetails: Solubility in 10 mM DMSO by lyophilizated solubility assay
- Format: physicochemical
measure: solubility

{"sampleSmiles": "CC(C)N1CCC(Oc2ccc3cc(C(=O)N4CCOCC4)ccc3c2)CC1", "solubility": "> 558 µg/mL"}

API: the following record is the query input.
**Q:** Identify solubility associated with the compound CC1CCN(C(=O)c2ccc3cc(OCCCN4CCCCC4)ccc3c2)CC1
**A:** > 543 µg/mL

----------
- testDetails: Membrane permeability by PAMPA
- Assay type: ADME
- runParameters: read-out: permeability
measure: Papp (×10⁻⁶ cm/s)

{"sampleSmiles": "CC(C)N1CCC(Oc2ccc3cc(C(=O)N4CCOCC4)ccc3c2)CC1", "Papp, ×10⁻⁶ cm/s": 2.5}
{"sampleSmiles": "CC1CCN(C(=O)c2ccc3cc(OCCCN4CCCCC4)ccc3c2)CC1", "Papp, ×10⁻⁶ cm/s": 2.6}

----------
- experimentalTarget: Histamine H2 receptor (Homo sapiens) (UniProt P25021)
- Sequence (P25021 whole entry): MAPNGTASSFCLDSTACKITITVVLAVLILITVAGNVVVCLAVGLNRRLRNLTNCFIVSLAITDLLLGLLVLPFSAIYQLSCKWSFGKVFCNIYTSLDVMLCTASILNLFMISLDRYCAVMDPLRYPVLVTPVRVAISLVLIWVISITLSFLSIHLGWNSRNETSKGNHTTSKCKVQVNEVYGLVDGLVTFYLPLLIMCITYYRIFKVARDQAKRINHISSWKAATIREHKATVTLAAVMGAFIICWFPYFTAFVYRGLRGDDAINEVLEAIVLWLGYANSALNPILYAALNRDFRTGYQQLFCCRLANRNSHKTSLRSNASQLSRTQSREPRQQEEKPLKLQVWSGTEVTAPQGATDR
- testDetails: Inhibition of human histamine H2 receptor at 3 uM
measure: inhibition (%)

{"sampleSmiles": "CC1CCN(C(=O)c2ccc3cc(OC4CCN(C(C)C)CC4)ccc3c2)CC1", "unit": "%", "testValue": -8}

A. CC1CCN(C(=O)c2ccc3cc(OCCCN4CCCCC4)ccc3c2)CC1
B. CC(C)CN1CCC(Oc2ccc3cc(C(=O)N4CCC(C)CC4)ccc3c2)CC1
C. CC(C)N1CCC(Oc2ccc3cc(C(=O)N4CCOCC4)ccc3c2)CC1
**Q:** Please rank these compounds by inhibition in descending order. Rank them, then answer with their labels in that order.
**A:** B, A, C
(B: 4.1%, A: -0.3%, C: -9.9%)

----------
- testDetails: Lipophilicity, log D at pH 7.4
- Assay type: physicochemical
- runParameters: buffer
measure: logD

a. CC1CCN(C(=O)c2ccc3cc(OCCCN4CCCCC4)ccc3c2)CC1
b. CC(C)N1CCC(Oc2ccc3cc(C(=O)N4CCOCC4)ccc3c2)CC1
**Q:** # returns the entry with the larger logD; inputs a and b Give the label under which the chosen entry appears.
**A:** a
(a: 2.47, b: 0.6)

----------
Consider the following Ki values measured on Histamine H3 receptor (Homo sapiens).
Sequence (Q9Y5N1 whole entry): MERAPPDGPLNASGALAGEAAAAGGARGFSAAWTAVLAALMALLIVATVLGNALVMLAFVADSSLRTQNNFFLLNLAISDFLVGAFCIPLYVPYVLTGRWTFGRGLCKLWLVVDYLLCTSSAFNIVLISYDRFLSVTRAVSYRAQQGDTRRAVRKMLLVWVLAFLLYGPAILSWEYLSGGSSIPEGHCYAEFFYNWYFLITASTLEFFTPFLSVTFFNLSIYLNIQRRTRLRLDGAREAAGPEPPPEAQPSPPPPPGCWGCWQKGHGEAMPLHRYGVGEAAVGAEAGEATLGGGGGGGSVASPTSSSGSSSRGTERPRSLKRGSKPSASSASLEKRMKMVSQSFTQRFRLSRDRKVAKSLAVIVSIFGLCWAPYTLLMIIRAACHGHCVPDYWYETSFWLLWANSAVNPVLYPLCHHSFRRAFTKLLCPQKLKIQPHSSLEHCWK
measure: Ki (nM)

Field: example entries. Status: answers known.
{"molecule": "O=C(c1ccc2cc(OCCCN3CCCCC3)ccc2c1)N1CCC(CO)CC1", "Ki / nM": 103}
{"molecule": "CC(C)N1CCC(Oc2ccc3nc(C(=O)N4CCC4)ccc3c2)CC1", "Ki / nM": 62}
{"molecule": "CC(C)CN1CCC(Oc2ccc3cc(C(=O)N4CCC(C)CC4)ccc3c2)CC1", "Ki / nM": 36}

I. CC(C)N1[C@@H]2CC(Oc3ccc4nc(C(=O)N5CCOCC5)ccc4c3)CC[C@H]1C2 (stereo not given in full)
II. CC(C)N1CCC(Oc2ccc3cc(C(=O)N4CCCC4C)ccc3c2)CC1 (stereo not given)
**Q:** Which of the two gives a bigger number for Ki: I or II ? Answer format: the label of the selected item.
**A:** I
(I: 30 nM, II: 15 nM)

----------
- testDetails: Metabolic stability in human liver microsomes assessed as clearance per mg of protein
- Format: ADME, Microsome
measure: microsomal CLint (µL/min/mg)

P. CC1CCN(C(=O)c2ccc3cc(OCCCN4CCCCC4)ccc3c2)CC1
Q. CC(C)N1CCC(Oc2ccc3cc(C(=O)N4CCOCC4)ccc3c2)CC1
**Q:** Hey, which is lower on measured microsomal CLint, P or Q ? Pick one and reply with its label.
**A:** Q
(Q: 23 µL/min/mg, P: 33 µL/min/mg)

----------
- experimentalTarget: Histamine H3 receptor (Homo sapiens)
measure: Ki (nM)

P. COC1CCN(C(=O)c2ccc3cc(OC4CCN(C(C)C)CC4)ccc3c2)CC1
Q. CC1CCN(C(=O)c2ccc3cc(OCCCN4CCCCC4)ccc3c2)CC1
R. COC1CCN(C(=O)c2ccc3cc(OC4CCN(C(C)C)CC4)ccc3n2)CC1
**Q:** I'd appreciate it if you sorted the entries above by their Ki, lowest to highest. Returns: the labels arranged in the requested order.
**A:** Q, P, R
